Molecular target: T1, DDE
T1 chain 1: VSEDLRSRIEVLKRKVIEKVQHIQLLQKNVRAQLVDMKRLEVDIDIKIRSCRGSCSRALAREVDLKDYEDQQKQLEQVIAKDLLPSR
T1 chain 2: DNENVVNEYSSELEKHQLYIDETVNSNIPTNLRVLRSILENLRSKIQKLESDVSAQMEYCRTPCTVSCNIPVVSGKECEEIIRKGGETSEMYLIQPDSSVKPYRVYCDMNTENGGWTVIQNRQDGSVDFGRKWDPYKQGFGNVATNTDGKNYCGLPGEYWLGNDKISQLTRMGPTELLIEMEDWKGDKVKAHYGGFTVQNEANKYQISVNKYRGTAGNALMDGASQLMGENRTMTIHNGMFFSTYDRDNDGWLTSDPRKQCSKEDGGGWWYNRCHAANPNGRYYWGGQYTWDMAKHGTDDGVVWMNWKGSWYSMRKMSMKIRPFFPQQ
T1 chain 3: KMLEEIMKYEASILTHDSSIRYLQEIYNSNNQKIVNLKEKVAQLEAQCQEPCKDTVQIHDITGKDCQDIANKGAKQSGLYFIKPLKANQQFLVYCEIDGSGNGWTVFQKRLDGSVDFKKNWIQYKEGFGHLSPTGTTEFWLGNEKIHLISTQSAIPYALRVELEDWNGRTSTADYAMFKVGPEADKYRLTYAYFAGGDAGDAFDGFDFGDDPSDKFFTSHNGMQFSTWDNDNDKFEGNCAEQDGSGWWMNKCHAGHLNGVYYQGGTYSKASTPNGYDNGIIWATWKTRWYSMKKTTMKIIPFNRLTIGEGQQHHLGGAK
T1 chain 4: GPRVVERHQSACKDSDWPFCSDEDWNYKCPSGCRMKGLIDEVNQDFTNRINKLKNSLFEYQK
T1 chain 5: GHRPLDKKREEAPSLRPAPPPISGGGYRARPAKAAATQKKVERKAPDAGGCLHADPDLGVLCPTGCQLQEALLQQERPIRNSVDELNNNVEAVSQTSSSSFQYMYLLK
T1 chain 6: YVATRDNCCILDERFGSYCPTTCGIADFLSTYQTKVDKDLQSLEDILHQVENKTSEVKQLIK
Experiment: direct binding fluorescence polarization: CF5-labeled peptide titrated with DDE; n = 2
Bridge positions count the residues as written; N and C are the ends. Square brackets hold non-standard residues; d marks the D form. CF5 = 5-carboxyfluorescein; AEEA = NCCOCCOCC(=O)O
VALUE KIND: Kd
The reply should read as a number followed by its unit.

Below, each entry is followed by its recorded Kd result.
BINDER | READING
Ac-GGRGWQPCPAESWTFCWDPGGGK(CF5)-NH2 (disulfide 8-16) [Seq035-CF5] | 520 nM
Ac-GGRGWQPCPWESWTFCWDPGGGK(CF5)-NH2 (disulfide 8-16) [Seq015-CF5] | 290 nM
Ac-GPPGWQPCPWESWTFCWDPGGGK(CF5)-NH2 (disulfide 8-16) [Seq014-CF5] | 250 nM

[in] Query (binder): Ac-KGKGKGWQPCPWESWTFCWDPGGGK(CF5)-NH2 (disulfide 10-18) [Seq026-CF5] ; field requested: Kd
[out] 760 nM

[in] What measured Kd goes with Ac-SGSGSGSGWQPCPAESWTFCWDPGGGK(CF5)-NH2 (disulfide 12-20) [Seq040-CF5] ?
[out] 530 nM

[in] State the recorded Kd for this entry: Ac-RRGGWQPCPAESWTFCWDPGGGK(CF5)-NH2 (disulfide 8-16) [Seq046-CF5]
[out] 220 nM

[in] Quick check: Kd of Ac-SGSG[AEEA]WQPCPAESWTFCWDPGGGK(CF5)-NH2 (disulfide 9-17) [Seq045-CF5] ?
[out] 570 nM

These entries and their values trace back to patent US20120328512A1.
